The following compounds are shown together with reported viability, T/C values.
Tested on: 361931-004-R-J1-PDC multicell spheroid viability
Assay: Anticancer human tumor 361931-004-R-J1-PDC patient-derived colon adenocarcinoma cell line growth inhibition [PI3K]
Settings: second compound 0.00316 µM; first compound 0.01 µM; stronger effect = lower value
Observable: viability, T/C (%)

1. CC(C)n1nc(-c2ccc3oc(N)nc3c2)c2c(N)ncnc21 + COc1c(OCCCN2CCOCC2)ccc2c3n(c(=NC(=O)c4cnc(N)nc4)nc12)CCN3: 106
2. Cn1ncnc1[C@H]1c2n[nH]c(=O)c3cc(F)cc(c23)N[C@@H]1c1ccc(F)cc1 + COc1c(OCCCN2CCOCC2)ccc2c3n(c(=NC(=O)c4cnc(N)nc4)nc12)CCN3: 98.2
3. CCN1CCN(Cc2ccc(Nc3ncc(F)c(-c4cc(F)c5nc(C)n(C(C)C)c5c4)n3)nc2)CC1 + COc1c(OCCCN2CCOCC2)ccc2c3n(c(=NC(=O)c4cnc(N)nc4)nc12)CCN3: 101
4. Cn1ncnc1[C@H]1c2n[nH]c(=O)c3cc(F)cc(c23)N[C@@H]1c1ccc(F)cc1 + CC(Nc1ccc2c(c1)OCCn1cc(N3C(=O)OCC3C(F)F)nc1-2)C(N)=O: 88.8
5. CC(=O)c1c(C)c2cnc(Nc3ccc(N4CCNCC4)cn3)nc2n(C2CCCC2)c1=O + COc1c(OCCCN2CCOCC2)ccc2c3n(c(=NC(=O)c4cnc(N)nc4)nc12)CCN3: 97
6. CC(=O)c1c(C)c2cnc(Nc3ccc(N4CCNCC4)cn3)nc2n(C2CCCC2)c1=O + CC(Nc1ccc2c(c1)OCCn1cc(N3C(=O)OCC3C(F)F)nc1-2)C(N)=O: 107
7. CCN1CCN(Cc2ccc(Nc3ncc(F)c(-c4cc(F)c5nc(C)n(C(C)C)c5c4)n3)nc2)CC1 + CC(Nc1ccc2c(c1)OCCn1cc(N3C(=O)OCC3C(F)F)nc1-2)C(N)=O: 100
8. CC(C)n1nc(-c2ccc3oc(N)nc3c2)c2c(N)ncnc21 + CC(Nc1ccc2c(c1)OCCn1cc(N3C(=O)OCC3C(F)F)nc1-2)C(N)=O: 95.6

----------
The following compounds are shown together with reported viability, T/C values.
Tested on: 361931-004-R-J1-PDC multicell spheroid viability
Test: Anticancer human tumor 361931-004-R-J1-PDC cell line growth inhibition [PI3K];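 note: spheroids exposed to agents for seven days before readout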
Conditions: second compound 0.01 µM; first compound 0.1 µM; stronger effect = lower value
Observable: viability, T/C (%)

1. C#Cc1c(F)ccc2cc(O)cc(-c3ncc4c(N5CC6CCC(C5)N6)nc(OCC56CCCN5CC(F)C6)nc4c3F)c12 (configuration not stated) + COc1c(OCCCN2CCOCC2)ccc2c3n(c(=NC(=O)c4cnc(N)nc4)nc12)CCN3: 106
2. CC1(C)CCC(Nc2ncc(C(F)(F)F)c(-c3c[nH]c4c(P(C)(C)=O)c(C#N)ccc34)n2)CN1 (configuration not stated) + COc1c(OCCCN2CCOCC2)ccc2c3n(c(=NC(=O)c4cnc(N)nc4)nc12)CCN3: 92.7
3. Cn1nccc1Nc1nccc(-c2ccn(C(CO)c3ccc(Cl)c(F)c3)c(=O)c2)n1 (configuration not stated) + COc1c(OCCCN2CCOCC2)ccc2c3n(c(=NC(=O)c4cnc(N)nc4)nc12)CCN3: 94.4
4. CC1(C)CCC(CN2CCN(c3ccc(C(=O)NS(=O)(=O)c4ccc(NCC5CCOCC5)c([N+](=O)[O-])c4)c(Oc4cnc5[nH]ccc5c4)c3)CC2)=C(c2ccc(Cl)cc2)C1 + CC(Nc1ccc2c(c1)OCCn1cc(N3C(=O)OCC3C(F)F)nc1-2)C(N)=O: 99.7
5. C=CC(=O)N1CCN(c2nc(=O)n(-c3c(C)ccnc3C(C)C)c3nc(-c4c(O)cccc4F)c(F)cc23)C(C)C1 (configuration not stated) + CC(Nc1ccc2c(c1)OCCn1cc(N3C(=O)OCC3C(F)F)nc1-2)C(N)=O: 100
6. Cn1ncc(Cl)c1-c1cc(C(=O)NC(CN)Cc2cccc(F)c2)sc1Cl (configuration not stated) + CC(Nc1ccc2c(c1)OCCn1cc(N3C(=O)OCC3C(F)F)nc1-2)C(N)=O: 94.5
7. Cn1ncnc1[C@H]1c2n[nH]c(=O)c3cc(F)cc(c23)N[C@@H]1c1ccc(F)cc1 + CC(Nc1ccc2c(c1)OCCn1cc(N3C(=O)OCC3C(F)F)nc1-2)C(N)=O: 91.1
8. CNC(=O)c1ccc(N2C(=S)N(c3ccc(C#N)c(C(F)(F)F)c3)C(=O)C2(C)C)cc1F + CC(Nc1ccc2c(c1)OCCn1cc(N3C(=O)OCC3C(F)F)nc1-2)C(N)=O: 102
9. CC(=O)c1c(C)c2cnc(Nc3ccc(N4CCNCC4)cn3)nc2n(C2CCCC2)c1=O + COc1c(OCCCN2CCOCC2)ccc2c3n(c(=NC(=O)c4cnc(N)nc4)nc12)CCN3: 83.4
10. CC(C)NCC(C(=O)N1CCN(c2ncnc3c2C(C)CC3O)CC1)c1ccc(Cl)cc1 (configuration not stated) + COc1c(OCCCN2CCOCC2)ccc2c3n(c(=NC(=O)c4cnc(N)nc4)nc12)CCN3: 100
11. C#Cc1c(F)ccc2cc(O)cc(-c3ncc4c(N5CC6CCC(C5)N6)nc(OCC56CCCN5CC(F)C6)nc4c3F)c12 (configuration not stated) + CC(Nc1ccc2c(c1)OCCn1cc(N3C(=O)OCC3C(F)F)nc1-2)C(N)=O: 104
12. CC1(C)CCC(CN2CCN(c3ccc(C(=O)NS(=O)(=O)c4ccc(NCC5CCOCC5)c([N+](=O)[O-])c4)c(Oc4cnc5[nH]ccc5c4)c3)CC2)=C(c2ccc(Cl)cc2)C1 + COc1c(OCCCN2CCOCC2)ccc2c3n(c(=NC(=O)c4cnc(N)nc4)nc12)CCN3: 98.7

----------
The following molecules are shown together with reported viability, T/C values.
Test system: 361931-004-R-J1-PDC multicell spheroid viability
Assay: Anticancer human tumor 361931-004-R-J1-PDC cell line growth inhibition [PI3K];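 note: spheroids exposed to agents for seven days before readout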
Details: second compound 0.1 µM; first compound 10 µM; stronger effect = lower value
Observable: viability, T/C (%)

1) CC(Cn1ccc(-c2ccc(C#N)c(Cl)c2)n1)NC(=O)c1cc(C(C)O)[nH]n1 (stereo not given) + COc1c(OCCCN2CCOCC2)ccc2c3n(c(=NC(=O)c4cnc(N)nc4)nc12)CCN3: 62.1
2) C[C@@H](NC(=O)c1ncnc(N)c1Cl)c1ncc(C(=O)Nc2cc(C(F)(F)F)c(Cl)cn2)s1 + CC(Nc1ncnc2nc[nH]c12)c1cc2cccc(Cl)c2c(=O)n1-c1ccccc1: 94.6
3) C=CC(=O)N1CCN(c2nc(=O)n(-c3c(C)ccnc3C(C)C)c3nc(-c4c(O)cccc4F)c(F)cc23)C(C)C1 (stereo not given) + CC(Nc1ccc2c(c1)OCCn1cc(N3C(=O)OCC3C(F)F)nc1-2)C(N)=O: 72.2
4) CC1(C)CCC(Nc2ncc(C(F)(F)F)c(-c3c[nH]c4c(P(C)(C)=O)c(C#N)ccc34)n2)CN1 (stereo not given) + CC(Nc1ncnc2nc[nH]c12)c1cc2cccc(Cl)c2c(=O)n1-c1ccccc1: 14.5
5) CC(Cn1ccc(-c2ccc(C#N)c(Cl)c2)n1)NC(=O)c1cc(C(C)O)[nH]n1 (stereo not given) + CC(Nc1ncnc2nc[nH]c12)c1cc2cccc(Cl)c2c(=O)n1-c1ccccc1: 99.4
6) CC1(C)CCC(CN2CCN(c3ccc(C(=O)NS(=O)(=O)c4ccc(NCC5CCOCC5)c([N+](=O)[O-])c4)c(Oc4cnc5[nH]ccc5c4)c3)CC2)=C(c2ccc(Cl)cc2)C1 + CC(Nc1ccc2c(c1)OCCn1cc(N3C(=O)OCC3C(F)F)nc1-2)C(N)=O: 1.48
7) Cn1nccc1Nc1nccc(-c2ccn(C(CO)c3ccc(Cl)c(F)c3)c(=O)c2)n1 (stereo not given) + CC(Nc1ncnc2nc[nH]c12)c1cc2cccc(Cl)c2c(=O)n1-c1ccccc1: 65.2
8) C#Cc1c(F)ccc2cc(O)cc(-c3ncc4c(N5CC6CCC(C5)N6)nc(OCC56CCCN5CC(F)C6)nc4c3F)c12 (stereo not given) + CC(Nc1ccc2c(c1)OCCn1cc(N3C(=O)OCC3C(F)F)nc1-2)C(N)=O: 53.4
9) C#Cc1c(F)ccc2cc(O)cc(-c3ncc4c(N5CC6CCC(C5)N6)nc(OCC56CCCN5CC(F)C6)nc4c3F)c12 (stereo not given) + CC(Nc1ncnc2nc[nH]c12)c1cc2cccc(Cl)c2c(=O)n1-c1ccccc1: 93
10) CCCS(=O)(=O)Nc1ccc(F)c(C(=O)c2c[nH]c3ncc(-c4ccc(Cl)cc4)cc23)c1F + COc1c(OCCCN2CCOCC2)ccc2c3n(c(=NC(=O)c4cnc(N)nc4)nc12)CCN3: 5.33

----------
Tested on: 361931-004-R-J1-PDC multicell spheroid viability
Test: Anticancer human tumor 361931-004-R-J1-PDC cell line growth inhibition [PI3K];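 note: spheroids exposed to agents for seven days before readout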
Conditions: curve of first compound; second compound 1 µM
Observable: IC50 (nM)

1) Cn1ncc(Cl)c1-c1cc(C(=O)NC(CN)Cc2cccc(F)c2)sc1Cl (stereo not given) + CC(Nc1ncnc2nc[nH]c12)c1cc2cccc(Cl)c2c(=O)n1-c1ccccc1: 2550
2) CC(=O)c1c(C)c2cnc(Nc3ccc(N4CCNCC4)cn3)nc2n(C2CCCC2)c1=O + CC(Nc1ccc2c(c1)OCCn1cc(N3C(=O)OCC3C(F)F)nc1-2)C(N)=O: 91.6

Hello, the source for this data is PubChem BioAssay AID1963979, in case you need it.
